Test system: U2OS
Assay: Multiplex assay against U2OS
Format: toxicity, cell-based
Details: human, 12 h, 1 µM, compound concentration 1 uM, replicate 2
Parameter threshold = 80%. Response is T when Population Apoptotic (%) meets or exceeds it, else F.

Worked examples follow.
| molecule | class_name |
| --- | --- |
| COc1c(Nc2ccc(S(C)(=O)=O)nc2C)ncnc1OC1CCN(C(=O)OC(C)C)CC1 | F |
| CN(C)C/C=C/C(=O)Nc1ccc(C(=O)N2CCCC(Nc3ncc(Cl)c(-c4c[nH]c5ccccc45)n3)C2)cc1 (centres undefined) | T |
| COc1cc(Nc2ncc3c(n2)-c2ccc(Cl)cc2C(c2c(F)cccc2OC)=NC3)ccc1C(=O)O | F |
| COc1cc2nc(N3CCN(C(=O)c4ccco4)CC3)nc(N)c2cc1OC.Cl [PRAZOSIN HYDROCHLORIDE] | T |
| COc1ccc2c(c1OCc1ccccc1)C[C@@H](C(=O)O)N(C(=O)C(c1ccccc1)c1ccccc1)C2 | F |
| CN1CCN(c2ccc(Nc3c4ccccc4nc4ccccc34)cc2)CC1.Cl.Cl.O | T |
| CN1CCN2c3ccccc3Cc3ccccc3C2C1.Cl (centres undefined) [MIANSERIN HYDROCHLORIDE] | T |

## Task Item O=c1nc2[nH]c3ccccc3nc-2c(=O)[nH]1 with Population Apoptotic (%) of 80% or above?
## Result F

----------
Tested on: Fibroblast
Experiment: Multiplex assay against human fibroblast
Assay type: toxicity, cell-based
Conditions: 48 h, 10 µM, compound concentration 10 uM, replicate 2
A collection of molecules and their measured Population Mitotic Cells (%)
Enter your answer as a number in %; do not include the unit.

| molecule | study_system | experimental_value |
| --- | --- | --- |
| Nc1nc(CC(=O)Nc2ccc(CCNC[C@H](O)c3ccccc3)cc2)cs1 | Fibroblast | 25 |
| Cc1cc(O)c(-c2ccc([C@@H](C)CN(C)C)cc2)c2c1[nH]c(=O)c1sccc12 | Fibroblast | 28 |
| O=C(Nc1cc(-c2ccccc2)nn1-c1ccccc1F)c1ccc([N+](=O)[O-])cc1 | Fibroblast | 47 |
| O=c1ccc2ccc(OCCCCN3CCN(c4cccc5sccc45)CC3)cc2[nH]1 | Fibroblast | 55 |
| CN(C)C/C=C/C(=O)Nc1ccc(C(=O)N2CCCC(Nc3ncc(Cl)c(-c4c[nH]c5ccccc45)n3)C2)cc1 (stereo unspecified) | Fibroblast | 31 |

## Task Identify Population Mitotic Cells (%) associated with the molecule CC(F)(F)CN1CCOc2c(nn(-c3ccccc3Cl)c2-c2ccc(Cl)cc2)C1=O
## Result 45

----------
System: U2OS
Assay: Multiplex assay against U2OS
Assay type: toxicity, cell-based
Conditions: human, 48 h, 10 µM, compound concentration 10 uM, replicate 2
Parameter threshold = 80%. Response is 1 when Population Apoptotic (%) meets or exceeds it, else 0.

| compound | study_system | class_name |
| --- | --- | --- |
| CCc1nn2c(C)cc(C)nc2c1Cc1ccc(-c2nnc(C3CCNCC3)o2)cc1 | U2OS | 0 |
| CCn1c(-c2nc3cc(C(=O)N4CCCC(N)C4)ccc3n2C)cc2ccccc21.Cl (stereo not given) | U2OS | 0 |
| Cc1cc(=O)n(C)c2cc(N3C(=O)CC[C@H](NS(=O)(=O)CC(C)C)[C@H]3c3ccc(Cl)cc3)ccc12 | U2OS | 0 |
| O=C(Nc1cc(-c2ccccc2)nn1-c1ccccc1F)c1ccc([N+](=O)[O-])cc1 | U2OS | 1 |

Now let's try a different one.
## Task Item Nc1nc(-c2ccco2)c2cnn(Cc3ccccc3F)c2n1 with Population Apoptotic (%) of 80% or above?
## Result 1

----------
System: HEK-293T
Assay: Multiplex assay against HEK293T
Type: toxicity, cell-based
Details: human, 48 h, 1 µM, compound concentration 1 uM, replicate 1
Non-standard residues stand in square brackets, D forms with d. Residues, ends and D or L forms follow the SMILES beside them.
A collection of compounds and their measured Population Fragmented Nuclei (%)
Enter your answer as a number in %; do not include the unit.

| compound | Population Fragmented Nuclei (%) |
| --- | --- |
| CC(C)C[C@@H]1NC(=O)[C@@H](C(C)C)NC(=O)[C@@H]2CCCN2C(=O)[C@@H](CC(=O)O)NC(=O)[C@@H](Cc2c[nH]c3ccccc23)NC1=O [BQ-123] (cyclo(L[dW][dD]P[dV])) | 11 |
| OCCCNc1cc(-c2ccnc(Nc3cccc(Cl)c3)n2)ccn1 | 12 |

## Task Identify Population Fragmented Nuclei (%) associated with the compound CN(C)C(=O)Cn1cc(-c2ccc(-c3nnc4ccccn34)cc2)cn1
## Result 11

## Task Identify Population Fragmented Nuclei (%) associated with the compound COc1cc(OC2CCN(C(C)=O)CC2)ccc1C(=O)N1CCC(N2C(=O)OCc3ccccc32)CC1
## Result 13

## Task Identify Population Fragmented Nuclei (%) associated with the compound COc1cc2nc(N3CCN(C(=O)c4ccco4)CC3)nc(N)c2cc1OC.Cl [PRAZOSIN HYDROCHLORIDE]
## Result 17

## Task Identify Population Fragmented Nuclei (%) associated with the compound CN(C)C/C=C/C(=O)Nc1ccc(C(=O)N2CCCC(Nc3ncc(Cl)c(-c4c[nH]c5ccccc45)n3)C2)cc1 (centres undefined)
## Result 16

## Task Identify Population Fragmented Nuclei (%) associated with the compound O=C(Nc1cc(-c2ccccc2)nn1-c1ccccc1F)c1ccc([N+](=O)[O-])cc1
## Result 13

## Task Identify Population Fragmented Nuclei (%) associated with the compound COc1ccc2c(c1OCc1ccccc1)C[C@@H](C(=O)O)N(C(=O)C(c1ccccc1)c1ccccc1)C2
## Result 13

## Task Identify Population Fragmented Nuclei (%) associated with the compound CN1CCN2c3ccccc3Cc3ccccc3C2C1.Cl (centres undefined) [MIANSERIN HYDROCHLORIDE]
## Result 15

----------
Test system: HEK-293T
Experiment: Multiplex assay against HEK293T
Assay type: toxicity, cell-based
Settings: human, 12 h, 10 µM, compound concentration 10 uM, replicate 2
Parameter threshold = 80%. Response is y when Population Healthy Nuclei (%) meets or exceeds it, else n.

Worked examples follow.
| compound | class_name |
| --- | --- |
| CC(C)(O)C(=O)N1CCN(c2ccc(C(F)(F)F)c(C3=C(c4c[nH]c5ccccc45)C(=O)NC3=O)c2)CC1 | n |
| CN1CCN2c3ccccc3Cc3ccccc3C2C1.Cl (stereo not given) [MIANSERIN HYDROCHLORIDE] | y |
| OCCCNc1cc(-c2ccnc(Nc3cccc(Cl)c3)n2)ccn1 | n |

## Task Item COc1cc(Nc2ncc3c(n2)-c2ccc(Cl)cc2C(c2c(F)cccc2OC)=NC3)ccc1C(=O)O with Population Healthy Nuclei (%) of 80% or above?
## Result n

----------
Tested on: HEK-293T
Test: Multiplex assay against HEK293T
Format: toxicity, cell-based
Details: human, 12 h, 1 µM, compound concentration 1 uM, replicate 2
A collection of compounds and their measured Population Mitotic Cells (%)
Enter your answer as a number in %; do not include the unit.

| compound | Population Mitotic Cells (%) |
| --- | --- |
| COc1cc2nc(N3CCN(C(=O)c4ccco4)CC3)nc(N)c2cc1OC.Cl [PRAZOSIN HYDROCHLORIDE] | 43 |
| CN1CCN(c2ccc(Nc3c4ccccc4nc4ccccc34)cc2)CC1.Cl.Cl.O | 45 |
| O=c1ccc2ccc(OCCCCN3CCN(c4cccc5sccc45)CC3)cc2[nH]1 | 57 |

## Task Identify Population Mitotic Cells (%) associated with the compound COc1cc(OC2CCN(C(C)=O)CC2)ccc1C(=O)N1CCC(N2C(=O)OCc3ccccc32)CC1
## Result 51

## Task Identify Population Mitotic Cells (%) associated with the compound Cc1cc(-c2ccc3c(c2)CC[C@H]3N2CC3(CCN(C(=O)Cc4cn5cc(C)sc5n4)CC3)C2)ncn1
## Result 52

----------
System: Fibroblast
Assay: Multiplex assay against human fibroblast
Format: toxicity, cell-based
Conditions: 12 h, 1 µM, compound concentration 1 uM, replicate 1
outcome_measure: Population Pyknosed Nuclei (%)
Enter your answer as a number in %; do not include the unit.

In the examples that follow, each entry is paired with its recorded Population Pyknosed Nuclei (%).
| molecule | experimental_value |
| --- | --- |
| CN1CCN(c2ccc(Nc3c4ccccc4nc4ccccc34)cc2)CC1.Cl.Cl.O | 14 |
| CN1C[C@H](C(=O)N[C@]2(C)O[C@@]3(O)[C@@H]4CCCN4C(=O)[C@H](Cc4ccccc4)N3C2=O)C[C@@H]2c3cccc4[nH]cc(c34)C[C@H]21.CS(=O)(=O)O [DIHYDROERGOTAMINE MESYLATE] | 16 |

## Task Identify Population Pyknosed Nuclei (%) associated with the molecule O=C(Nc1cc(-c2ccccc2)nn1-c1ccccc1F)c1ccc([N+](=O)[O-])cc1
## Result 10

## Task Identify Population Pyknosed Nuclei (%) associated with the molecule COc1cc2nc(N3CCN(C(=O)c4ccco4)CC3)nc(N)c2cc1OC.Cl [PRAZOSIN HYDROCHLORIDE]
## Result 19

Just for reference, ChEMBL document CHEMBL5058577 is where these values come from.
